System: OVCAR-4
Settings: OVCAR-4, 48 h
Rule for this label: True means TGI is less than 20 µM; False means TGI is at least 20 µM.

molecule="CC(C)C(C(=O)O)N1C(=O)/C(=C/C=C/c2ccc([N+](=O)[O-])o2)SC1=S (centres unmarked) [5b]" group=True
molecule="O=C(O)CCN1C(=O)/C(=C/C=C/c2ccc([N+](=O)[O-])o2)SC1=S [12b]" group=True
molecule="O=C(O)C(c1ccccc1)N1C(=O)/C(=C/C=C/c2ccc([N+](=O)[O-])o2)SC1=S (centres unmarked) [9b]" group=False
molecule="CCCCC(C(=O)O)N1C(=O)/C(=C/C=C/c2ccc([N+](=O)[O-])o2)SC1=S (centres unmarked) [6b]" group=True
molecule="CCCC(C(=O)O)N1C(=O)/C(=C/C=C/c2ccc([N+](=O)[O-])o2)SC1=S (centres unmarked) [4b]" group=True
